Values from patent US20140010817A1

# SYSTEM UNDER TEST: T1, RX protein purified from the culture supernatant of ADSF cells (murine mammary tumor virus (MMTV) …, UniProt P03374 99-474; P03374 475-651)
# T1 construct: also called purified RX protein; ADSF cell-derived RX protein
# EXPERIMENTAL PROTOCOL: SPR (ProteOn XPR36), humanized MAb1 captured on immobilised Protein A/G, RX protein as analyte
READOUT NAME: pKd
Expect pKd as a plain number equal to -log10 of the molar concentration.

# example entries with known answers
{"BINDER": "humanized antibody T18 (antibody, V domains shown, also called humanized MAb1 (H7/L2)) VH: EVQLVESGGGLVQPGRSLRLSCAGSGFTFSDYYMAWVRQAPGKGLEWVASISYEGSNTNFGDSVKGRFTISRDSSKNTLYLQMNSLRAEDTAVYYCARWAQTGYYFDYWGQGTLVTVSS VL: DIQMTQSPSSLSASVGDRVTITCLASEDIYSNLAWYQQKPGKSPKLLIYYANSLNDGVPSRFSGSGSGTDFTLTISRLQPEDFATYYCQQNYDSPYTFGQGTKVEIKR", "pKd": 9.66}
{"BINDER": "humanized antibody T14 (antibody, V domains shown, also called humanized MAb1 (H5/L2)) VH: EVQLVESGGGLVQPGRSLRLSCAASGFTFSDYYMAWVRQAPGKGLEWVASISYEGSNTNFGDSVKGRFTISRDSSKNTLYLKMNSLRAEDTAVYYCARWAQTGYYFDYWGQGTLVTVSS VL: DIQMTQSPSSLSASVGDRVTITCLASEDIYSNLAWYQQKPGKSPKLLIYYANSLNDGVPSRFSGSGSGTDFTLTISRLQPEDFATYYCQQNYDSPYTFGQGTKVEIKR", "pKd": 9.72}
{"BINDER": "humanized antibody T11 (antibody, V domains shown, also called humanized MAb1 (H3/L5)) VH: EVQLVESGGGLVQPGRSLRLSCAGSGFTFSDYYMAWVRQAPGKGLEWVASISYEGSNTNFGDSVKGRFTISRDSSKNTLYLKMNSLRAEDTAVYYCARWAQTGYYFDYWGQGTLVTVSS VL: DIQMTQSPSSLSASVGDRVTITCLASEDIYSNLAWYQQKPGKSPKLLIYYANSLNDGVPSRFSGSGSGTDFTLTISSLQPEDFATYYCQQNYDSPYTFGQGTKVEIKR", "pKd": 9.43}
{"BINDER": "humanized antibody T2 (antibody, V domains shown, also called humanized MAb1 (H1/L2)) VH: EVQLVESGGGLVQPGRSLRLSCAASGFTFSDYYMAWVRQAPGKGLEWVSSISYEGSNTNFGDSVKGRFTISRDNSKNTLYLKMNSLRAEDTAVYYCARWAQTGYYFDYWGQGTLVTVSS VL: DIQMTQSPSSLSASVGDRVTITCLASEDIYSNLAWYQQKPGKSPKLLIYYANSLNDGVPSRFSGSGSGTDFTLTISRLQPEDFATYYCQQNYDSPYTFGQGTKVEIKR", "pKd": 8.72}

Which value of pKd has been reported for humanized antibody T17 (antibody, V domains shown, also called humanized MAb1 (H6/L5)) VH: EVQLVESGGGLVQPGRSLRLSCAGSGFTFSDYYMAWVRQAPGKGLEWVASISYEGSNTNFGDSVKGRFTISRDNSKNTLYLKMNSLRAEDTAVYYCARWAQTGYYFDYWGQGTLVTVSS VL: DIQMTQSPSSLSASVGDRVTITCLASEDIYSNLAWYQQKPGKSPKLLIYYANSLNDGVPSRFSGSGSGTDFTLTISSLQPEDFATYYCQQNYDSPYTFGQGTKVEIKR in the records?
8.70
